assayed_target: Inadl_1, Q8NI35
Sequence (Q8NI35 113-229): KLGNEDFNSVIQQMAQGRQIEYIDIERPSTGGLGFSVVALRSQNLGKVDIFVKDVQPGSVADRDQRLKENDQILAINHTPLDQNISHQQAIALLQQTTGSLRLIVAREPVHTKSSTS
procedure_summary: holdup assay
Design: key: below the threshold = too weak to quantify, mostly under pKd 3.1 to 4
particulars: plain residues with an end cap or a label only (N-terminal biotin on a linker: ttds)
outcome_measure: pKd

Solved entries (count: 6):
- PKRPFVESNV [TANC2, Q9HCD6]: below the threshold
- DPRNTQTSQI [ABRAXAS2, Q15018]: 3.72
- SEKHFRETEV [HTLV1-TAX1, P03409]: below the threshold
- RTRQRNETQV [HPV51-E6, P26554]: below the threshold
- GGPKEEESPV [SLC16A1, P53985]: below the threshold
- LDSQIQETSI [MAP4, P27816]: below the threshold

Below: the item to evaluate.
Please indicate pKd recorded for LCALPKVTTV [AGMAT, Q9BSE5]
3.57
